meta.source: ChEMBL document CHEMBL3286247

System: Pseudomonas aeruginosa
Assay: Antibacterial activity against Pseudomonas aeruginosa YY165 deltamexB mutant assessed as growth inhibition after 20 hrs by microdilution method
Type: functional
Settings: YY165, 20 h
# MIC per record follows
Record the value in µg/mL, omitting the unit from your answer.

[
  {
    "sample_smiles": "CCCCCCCCCCCCCCC[C@H](NC(=O)c1ccnnc1)C(=O)NCCCN[C@H](C(=O)O)[C@H](O[C@@H]1O[C@H](CN)[C@@H](O)[C@H]1O)[C@H]1O[C@@H](n2ccc(=O)[nH]c2=O)[C@H](O)[C@@H]1O",
    "unit_of_measure": "µg/mL",
    "MIC": 64
  }
]

Tell me its MIC given "CCCCCCCCCCCCCCC[C@H](NC(=O)[C@@H](N)CCCN)C(=O)NCCCN[C@H](C(=O)O)[C@H](O[C@@H]1O[C@H](CN)[C@@H](O)[C@H]1O)[C@H]1O[C@@H](n2ccc(=O)[nH]c2=O)[C@H](O)[C@@H]1O" as the entry. 32
